Could you please report measured max response for the items listed next?
- Assay notes: qHTS assay for small molecule antagonists of peroxisome proliferator-activated receptor delta signaling (AID 588535);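 also: cells co-treated with a PPAR-delta agonist as stimulator during compound exposure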
- Run parameters: HEK293T PPARd-UAS-bla, beta-lactamase FRET ratio, 18 h; 460 nm channel
Inconclusive results are not listed.
Entry rule: numbers only, all in %.

The compound `Nc1ccn([C@H]2CS[C@@H](CO)O2)c(=O)n1` showed max response equal to -4.56

Lab note: `CCOC(C)=O` gave max response of -20.7

max response in this record for `O=CCCCC=O` : 37.6

The recorded max response for entry CCCCC(CC)COC(=O)CC(C(=O)OCC(CC)CCCC)S(=O)(=O)O (centres undefined) equals 46.2

====

- Tested on: Zika virus NS2B-NS3 protease (linked construct)
- Assay notes: Primary screen NINDS Rhodamine qHTS for Zika virus inhibitors (AID 1347160); also: % is scaled to controls: 0 for no effect and ±100 for the full control effect; nearly all actives have a fitted effect of over 55% in size
- Run parameters: purified NS2B-NS3 protease, Rhodamine110 substrate fluorescence; series mostly up to 57.1 µM
Records with an inconclusive call do not appear. Calls of active or inactive are those of the source. Calls come from the whole dose curve; as a rule, active = well fitted inhibition curve with a large enough effect; inconclusive = small, poorly fitted or top-dose-only effect; inactive = no such curve, though single readings can be large or run the other way.
Endpoint name: activity change, negative = inhibition

activity change, negative = inhibition for CC1OC(OC2C(CO)OC(OCC3OC(OC(=O)C45CCC(C)(C)CC4C4=CCC6C7(C)CCC(OC8OC(C(=O)O)C(O)C(OC9OC(CO)C(O)C(O)C9O)C8O)C(C)(C)C7CCC6(C)C4(C)CC5)C(O)C(O)C3O)C(O)C2O)C(O)C(O)C1O (configuration not stated) is 9.74% [at 10.7 µM] (inactive)

Recorded activity change, negative = inhibition (compound CC1OC(O[C@H]2[C@@H](O)C[C@@]3(C)C([C@H](O)C[C@]4(C)C3CC=C3C5CC(C)(C)CC[C@]5(C(=O)OC5OC(CO)C(O)C(O)C5OC5OCC(OC6OCC(OC7OCC(O)C(O)C7O)C(O)C6O)C(OC6OCC(O)(CO)C6O)C5O)CC[C@]34C)[C@]2(C)CO)C(O)C(O)C1O (some centres not stated) ): -1.39% [at 10.7 µM] (inactive)

====

- Tested on: Hek293T
- Assay notes: Primary qHTS to identify gynecologic anti-cancer compounds using libraries of approved drugs and bioactive compounds (AID 1345084); also: % is scaled to controls: 0 for no effect and ±100 for the full control effect; nearly all actives have a fitted effect of over 55% in size
- Run parameters: Gynecologic cancer cell panel viability, ATPlite luminescence, 48 h, control line for the selectivity index; series mostly up to 57.5 µM
Inconclusive results are not listed. The source made the active and inactive calls. Calls follow the shape of the dose curve; as a rule, active = well fitted cell-killing curve with a large enough effect; inconclusive = small, poorly fitted or top-dose-only effect, or effect the other way; inactive = flat fitted curve, though single readings scatter.
Endpoint name: activity change, negative = cytotoxicity

CC1(C)O[C@@]2(C)CC[C@@H]1C[C@@H]2OC1OC(CO)C(O)C(O)C1O (some centres undefined) | inactive
COc1cc(/C=C/C(=O)O[C@H]2[C@H](O)[C@@H](CO)O[C@@]2(CO)O[C@H]2O[C@H](COC(=O)c3ccc(O)cc3)[C@@H](O)[C@H](O)[C@H]2O)cc(OC)c1OC | inactive
COCCCNCC1COc2ccccc2O1 (centres undefined) | inactive
CC1(C)CCCC2(C)C3=C(C(=O)OC3O)C(O)CC12 (centres undefined) | inactive
CC(C)[C@@H](C)/C=C/[C@@H](C)[C@H]1CC[C@H]2C3=CC=C4C[C@@H](O)CC[C@]4(C)[C@H]3CC[C@]12C | inactive

Notebook: `O=C1CC(c2ccc([N+](=O)[O-])cc2)=NN1c1ccccc1` , activity change, negative = cytotoxicity read as inactive

For reference, reported activity change, negative = cytotoxicity for `CCC(CC)n1ccc2c(C(=O)NCc3c(C)cc(C)[nH]c3=O)cc(C#N)cc21` stands at inactive

Value of activity change, negative = cytotoxicity reported for the compound `CCCCS(=O)(=O)Nc1ncnc(OCCOc2ncc(Br)cn2)c1-c1ccc(Br)cc1` is inactive

get_value(item= CC12CCC3c4ccc(O)cc4CCC3C1CCC2OC1OC(C(=O)O)C(O)C(O)C1O (centres undefined) , readout=activity change, negative = cytotoxicity) returns inactive
